Every entry's value here was drawn from ChEMBL document CHEMBL5728748.

assay: TarO Biochemical Enzymatic Assay: The TarO biochemical enzymatic assay is a liquid chromatography-mass spectroscopy (LC-MS) based end point assay that measures C55-P-P-GlcNAc (LIPID III) production. The TarO biochemical enzymatic assay was performed in a 384-well microtiter plate (Labcyte) with a reaction volume of 20 μl. The reaction mix contained 0.1 μgs/μl of TarO membrane preparation derived from MRSA COL (lysostaphin/lysozyme treated, centrifuged at 40K rpm, and re-suspended in 50 mM Tris pH 7.5, 10 mM MgCl2), 1500 μM UDP-GlcNAc, x 75 μM C55-P substrates in 83 mM Tris pH 8.0, 6.7 mM MgCl2, 6 mM CHAPS, and 8.3% DMSO buffer. The enzyme reactions were quenched by extraction in 40 μl of 1-pentanol containing 0.04 μM […] C55-PP-GlcNAc, which was used as an internal standard. A 10 μl volume of the quenched reaction mixture (pH≈3) from each well was injected onto a reversed-phase column (C4, 5 m, 2.1×50 mm, Thermo Scientific Biobacis-4) and eluted using a NH4Ac/H2O/MeOH gradient (solvent A: 10 mM NH4Ac in water, pH 5.6; solvent B: NH4Ac (1 M)-Isopropanol (1:90, v/v, pH 5.6). The HPLC conditions were as follows: 15% solvent B for 15 seconds followed by a gradient to 90% solvent B in 90 seconds; then solvent B was kept at 95% for 10 seconds followed by a gradient to 8% solvent B in 0.1 minute. The column was then equilibrated at 15% B for 1 minute before the next injection. The flow rate was kept constant at 600 μl/minute. Mass spectrometric detection was carried out in the negative-ion mode using selected reaction monitoring (SRM). Typical mass spectrometric conditions were as follows: heated capillary temperature, 210° C.; spray voltage, 2500 V; desolvation gas (N2), 40 l/h; auxiliary gas (N2), 35 l/h. Selected ion current (SIC) chromatograms of C55-PP-GlcNAc and internal standard 15C C55-PP-GlcNAc were plotted and integrated using LCQuan incorporated in Xcalibur software (ThermoFinnigan). The linearity of C55-PP-GlcNAc concentration versus mass spectrometric signal (AC55-PP-GlcNAc/A15C-C55-PP-GlcNAc) was determined with purified C55-PP-GlcNAc. The IC50 values were calculated using the nonlinear regression analysis (sigmoidal dose response fit allowing for a variable slope) of percent inhibition data with minimum and maximum values set to 0 and 100 percent.
assayReadout: IC50 (nM)
Write the number in nM without appending the unit.

Please review the entries below; each comes with its answer.
C[C@H]1[C@@H](c2cccc(OC(F)(F)F)c2)OC(=O)N1C(=O)CCc1cncc2ccccc12	140
O=C(NCc1cccc2cncnc12)N1C(=O)O[C@H](c2cc(C(F)(F)F)cc(C(F)(F)F)c2)[C@@H]1CO	80

// next item, IC50 requested
INPUT: Tell me measured IC50 for `C[C@H]1[C@@H](c2cc(F)cc(C(F)(F)F)c2)OC(=O)N1C(=O)NCc1nccc2sccc12` please.
OUTPUT: 120
